System Tested: Serine/threonine-protein kinase MARK1 (Homo sapiens)
Reported Conditions: at 10 µM
Readout Label: residual activity

{"Compound": "O=C(O)/C=C/c1cc(Br)c(Br)c(Br)c1Br", "Result": "82%"}
{"Compound": "O=C(Nc1nc2ccccc2n1CCN1CCOCC1)c1cccc([N+](=O)[O-])c1", "Result": "81%"}
{"Compound": "CC(C)(C)n1nc(Cc2cccc3ccccc23)c2c(N)ncnc21", "Result": "80%"}
{"Compound": "O=C(NC(NC(=S)Nc1ccc(F)c([N+](=O)[O-])c1)C(Cl)(Cl)Cl)C(c1ccccc1)c1ccccc1 (centres undefined)", "Result": "80%"}
